- Protocol Details: Stability with time of a second solution of a permanent waving composition containing a direct dye (storage at 45° C.)
- Assay type: physicochemical
- Condition Notes: 0.2% dye in second solution, stored at 45° C., 4 weeks
Measurement Type: pH (45° C.) 4 weeks

Cc1ccc(Nc2ccc(O)c3c2C(=O)c2ccccc2C3=O)c(S(=O)(=O)[O-])c1.[Na+] [PURPLE 401]: 6.54
Nc1c(N=Nc2ccc([N+](=O)[O-])cc2)c(S(=O)(=O)[O-])cc2cc(S(=O)(=O)[O-])c(N=Nc3ccccc3)c(O)c12.[Na+].[Na+] [BLACK 401]: 6.45
O=[N+]([O-])c1ccccc1NCCO [HC YELLOW 2]: 6.44
COc1ccc(N(C)N=Cc2cc[n+](C)cc2)cc1 [cationic dye (A)]: 6.42
O=S(=O)([O-])c1ccc(N=Nc2c(O)ccc3ccccc23)cc1.[Na+] [ORANGE 205]: 6.45
Cn1cc[n+](C)c1N=Nc1ccc(N)cc1 [cationic dye (C)]: 6.41
O=[N+]([O-])c1cc(N(CCO)CCO)ccc1NCCO [HC BLUE 2]: 6.15
